- EXPERIMENTAL_TARGET: Angiotensin-converting enzyme (Oryctolagus cuniculus)
- Sequence (P12822 whole entry): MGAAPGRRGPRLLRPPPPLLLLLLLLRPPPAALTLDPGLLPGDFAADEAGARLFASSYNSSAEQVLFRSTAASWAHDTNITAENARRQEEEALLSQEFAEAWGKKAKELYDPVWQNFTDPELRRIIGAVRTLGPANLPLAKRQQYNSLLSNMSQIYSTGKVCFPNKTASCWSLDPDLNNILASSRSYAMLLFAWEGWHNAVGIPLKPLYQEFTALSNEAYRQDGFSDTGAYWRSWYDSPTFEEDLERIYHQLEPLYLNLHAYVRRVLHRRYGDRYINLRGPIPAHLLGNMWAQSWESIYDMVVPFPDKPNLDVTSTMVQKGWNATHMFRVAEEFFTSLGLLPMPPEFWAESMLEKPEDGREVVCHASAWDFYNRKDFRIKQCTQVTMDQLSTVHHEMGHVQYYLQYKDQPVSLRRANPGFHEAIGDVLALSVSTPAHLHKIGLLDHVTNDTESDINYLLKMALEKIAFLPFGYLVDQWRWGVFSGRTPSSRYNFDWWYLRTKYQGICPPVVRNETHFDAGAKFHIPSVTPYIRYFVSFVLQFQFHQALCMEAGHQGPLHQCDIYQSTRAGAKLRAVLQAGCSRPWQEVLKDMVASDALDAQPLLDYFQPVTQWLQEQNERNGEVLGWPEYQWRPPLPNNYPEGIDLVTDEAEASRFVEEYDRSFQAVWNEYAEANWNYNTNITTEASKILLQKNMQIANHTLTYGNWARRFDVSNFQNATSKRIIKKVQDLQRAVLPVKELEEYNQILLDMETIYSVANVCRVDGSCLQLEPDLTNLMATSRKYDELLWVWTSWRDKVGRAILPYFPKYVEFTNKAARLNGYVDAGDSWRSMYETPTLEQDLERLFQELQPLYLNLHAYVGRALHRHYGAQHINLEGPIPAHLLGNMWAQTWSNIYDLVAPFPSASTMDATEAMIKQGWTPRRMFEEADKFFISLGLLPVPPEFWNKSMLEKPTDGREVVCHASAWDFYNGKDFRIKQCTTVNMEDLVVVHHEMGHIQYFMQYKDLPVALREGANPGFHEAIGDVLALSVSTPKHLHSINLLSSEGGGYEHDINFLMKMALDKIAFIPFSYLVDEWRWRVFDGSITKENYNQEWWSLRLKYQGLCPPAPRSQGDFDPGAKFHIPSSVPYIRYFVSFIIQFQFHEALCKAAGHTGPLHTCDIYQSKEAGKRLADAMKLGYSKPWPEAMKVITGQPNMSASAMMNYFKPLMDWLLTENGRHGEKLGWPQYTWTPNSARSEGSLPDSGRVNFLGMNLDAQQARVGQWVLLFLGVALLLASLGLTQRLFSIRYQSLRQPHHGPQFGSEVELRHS
Note to self: these molecules have pIC50 reported for Angiotensin-converting enzyme (Oryctolagus cuniculus) in various publications.
Numbers only, as −log10 of the molar value.

- Cc1ccccc1N(CC(=O)O)C(=O)C(C)CS (stereo not drawn): 6.92
- CC(=O)SCC(C)C(=O)N(CC(=O)O)C1CC2CCC1C2 (stereo in doubt; 30): 7.70
- CC(=O)N(O)CC(Cc1ccccc1)C(=O)N[C@@H](CC(C)C)C(=O)N[C@@H](Cc1ccccc1)C(=O)O (stereo partly drawn): 3.34
- NCCCC[C@H](OP(=O)(O)CCCCc1ccccc1)C(=O)N1CCC[C@H]1C(=O)O: 7.44
- COc1cccc(N(CC(=O)O)C(=O)C(C)CSC(C)=O)c1 (stereo not drawn): 6.96
- O=C(N[C@H](CCC(=O)N1CCC[C@H]1C(=O)O)C(=O)O)OCc1ccccc1: 7.30

Please look at the items below and tell me pIC50 for each one, in order.
1. O=C1N[C@H](C(=O)O)CSCCCCCCCC1CS (single isomer, unassigned; isomer A)
2. CC(C)[C@H](S)C(=O)NC1(C(=O)N[C@@H](Cc2ccc(O)cc2)C(=O)O)Cc2ccccc2C1
3. O=C1N[C@H](C(=O)O)CSCCCCCCCCC1CS (stereo in doubt; 12b)
4. CCSCC[C@@H](NC(=O)[C@@H](CS)Cc1ccccc1)C(=O)O
5. O=C(NCCCCC(NC(=O)OCc1ccccc1)C(=O)N[C@H](CCC(=O)N1c2ccccc2C[C@H]1C(=O)O)C(=O)O)OCc1ccccc1 (stereo partly drawn)
6. O=C(N[C@H](CCC(=O)N1c2ccccc2CCC1C(=O)O)C(=O)O)OCc1ccccc1 (stereo partly drawn)
7. CCCCc1nc(Cl)c(C2CC(c3ccco3)=NN2C(C)=O)n1C (stereo not drawn)

Response:
1. 7.14
2. 7.59
3. 7.77
4. 6.67
5. 7.21
6. 7.06
7. 2.63
